Provide the reported apparent KD of K4 kissing-loop reporter of each item.
System: K4 kissing-loop RNA reporter;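 further: bound reporter read as fluorescence of individual clusters on recovered sequencing chips by microscopy, with normalized cluster intensities fitted with a binding model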
Assay: apparent KD of K4 kissing-loop reporter; higher = weaker reporter binding
Settings: Eterna round: R107; input ligand: theophylline 20 uM
Report field: quantity (unit follows the number).

Answered examples (3):
SEQ | STUDY SYSTEM | apparent KD of K4 kissing-loop reporter
UGGAGUUGACGAAAAGUCAACUCCUGAGAAGGAGCGGACGAAAGUCCAGGUAGGUCGCUCACUACCAGUGAUGUUGGUACUGAAA | K4 kissing-loop RNA reporter | 229 nM
GCCGUAGAUGGAAGGAGCGUGAUAAGUGAAUUAUCCAGUGAUGUUGGAUCUUAGAUAGGAUCACAGGUAGGUCGCCAUCUACGGC | K4 kissing-loop RNA reporter | 297 nM
AGCAAUAUCACGGCCGCCACUGAUUAUUGUUUUUAUAGUUAUAAAUCUUGCCAGUGAUGUUGGUUCAGGACCGGGUGAGUUAAUA [JR_SSTryptoB_Sub002] | K4 kissing-loop RNA reporter | 620 nM

For every record below, what is its apparent KD of K4 kissing-loop reporter?
1. UGGCGGCAAGGGUUAUUGGAAAGUAUUCGUCGAGGACCGGUACGGCCGCCACUCGAACACCAGUGAUGUUGGUCUGGUUUAAGCU [Exclusion Tryptophan A GF 22]
2. AAGCUCAGCGUGACUCGAUAAGAGUCACAACGAGGACCGGUACGGCCGCCACUCGAAAUAAGAGAGUGAUGUUCUCGCUGAGCAA [#SwitchBubble 6 #StaticStem #K4Late]
3. GCCGUAGAUUGAAGGAGCGGUAUGGGCGUUGGCUGAGUGAUGUUCAGGAAAAGUGGCUUCUACCAGGUAGGUCGCAAUCUACGGC

1. 636 nM
2. 824 nM
3. 139 nM

For every record below, what is its apparent KD of K4 kissing-loop reporter?
1. UCCUGCAAUCCGCCACGAAAGUGGAUGGAUACCAGAGUCGAAAGACUCCCUUGGCAGCCAGUGAUGUUGGAAGCAGGUAAAUAAA
2. AAUACCUGAGUGAUGUUCAGGGAAUCAGAAGGAGCGUCAAUUAUGACAGGUAGGUCGCUGAAGACAUGUGUGUAUACACAUGUCC [#04 K4 Arginine A Same State]
3. CCUAUCUCGUAGGAUACCAGACUAUGAUCUAUGAUCAAUGCCAUCACCGAGUGAUGUUCGGUCCCUUGGCAGCCUAUGAGAUGGG [#13 K4 Theophylline B Exclusion]

["656 nM", "275 nM", "221 nM"]

For every record below, what is its apparent KD of K4 kissing-loop reporter?
1. UGAUACCAGACUGAUACCAGCAAGUGAUGUUUGUUGAUCUAUGCAGUCAAAGACUGCUCUUGCCCUUGGCAGCAGUCUGGUAUCU [TheoBX 28 #SwitchBubble #StaticStem]
2. UUAGCUCUAUAGAGCAAGAGGUCAACUGAUACCAGAGGCUAUAGCCUCCCUUGGCAGCGGAACGAGUGAUGUUCGAGACCUCAUU [AK6 SS Theophylline A]
3. UUUAUAAAGUCGGCCGCCACUGGAUUUAUAUUUGUUUAGUCUGGAUCAAAGUGAUGUUUUGAGUCCAGGACCGGGACAUUUGUUA [whbob_Ex_Tryp_B_w36]
4. AAGGCCACGAGAAGGAGCGUGCUAUGGAGUGAUGUUCCAAUGUAGACCUAAGGUCUACAAGCACAGGUAGGUCGCUCGUGGUCAA [Omei KL Arginine B SS A v2]
5. GACAUCUAUCGCCGAUAGUGUUUAUCUUGGGAGGAUAUGUCAGCGGACAGAAGGCCCAGUGAUGUUGGGUAGAUGACCGUUGCCU [Orerditi]
6. UUUAUUAAGACGGCCGCCACUGAAUUAGAGUGAUGUUCUAUAAUUUCUAAAUUAAAUUUAUUCAACAGGACCGGGUCAAUUAUUA [JR_SSTryptoB_Sub011]

1. 409 nM
2. 750 nM
3. 91.9 nM
4. 100 nM
5. 131 nM
6. 392 nM

For every record below, what is its apparent KD of K4 kissing-loop reporter?
1. CCCUCACGAGUGAUGUUCGUAGGGUACAGUCAGGAUAUCAUGCGGUUGAGAAGGGACAGAGAGGGCGGCCACUGGUUGCUCUUCU [Tiatesqu]
2. UGUAAGUGUCAGCGAGUGAUGUUCGACGAUACCAGACUCGAUAGAGUCCCUUGGCAGCGUAAUGCAUGCCAAACUGGCACAUACU [#SwitchBubble 11 #K4Early]
3. AGCCGAAAGGCGAGUGCUGUCGCUCCGGAAGGAGCGCAGGAAACUGCAGGUAGGUCGCCGGAGUGAUGUUUUGGUGCAGCACUCA [Omei KL Arginine A Exc B v7]
4. GGAGUUACCUGGGAUACCAGCCGGAGGCCCAGAGCUCGGAGUGAUGUUCUGGGAUGUUUCGGCCCUUGGCAGCUCUGGGUCUCCC [#2 Exclusion - Theophylline B Attempt #6 (HarryS)]
5. GGAUAGGACAGAGGAUAUGGUAGUGAUGUUACCAACAGCCUACUGUCAAUAAAGACGGUUGGCUGACCAGAAGGCUGUCCUAUCG [Mod of Eli's FmnBX 26 v1]
6. AGACUACCACACUGUCAAUAGACAGUGAACUAGGAUAUGCUGAUAAGCAGAAGGAGUGAUGUUCCUCGGUAGUCAAUAAAAUAAU [FmnAX 13 C67]
7. AUUUUAUUAACUGAUACCAGACUUAAUGAUUUGUAAAUUACUAGUGAUGUUAGUGAUUCUGUCCCUUGGCAGCAGUAUUUAUUUA [JR_ExcTheophyB_Sub013]

1: 418 nM; 2: 528 nM; 3: 132 nM; 4: 505 nM; 5: 148 nM; 6: 346 nM; 7: 87.6 nM

Fill in the blank: the reported apparent KD of K4 kissing-loop reporter of UGAUACCAGACGGCCGCCACUCCUGCAGUCAAAGACUGCUAAAAGGAAAUCGUCCAGUGAUGUUGGAGGACCGGGUCUGGUAUCU [TrypBX 14 #SwitchBubble #Palindromic #StaticStem] is ____. 685 nM

From: the supplement of paper PMC9170038
